# Test system: HCT116
# Experimental details: AC50 cell viability (CellTiter-Glo); higher = less potent
# Condition summary: 48 h
Mark true only when AC50 cell viability stays strictly below 7 µM. Values equal to the cut-off are false.

Consider the worked cases shown below.
>  <Molecule>
CC(C)C(=O)Nc1ncc(-c2cc(C(F)F)nn2-c2c(Cl)cccc2Cl)s1

>  <Group>
false

$$$$
>  <Molecule>
CNC(=O)Cn1cc(-c2ccc3c(c2)C(F)CC32NC(=O)N(CC(=O)N(Cc3ccc(F)cc3)C(C)C(F)(F)F)C2=O)cn1 (centres undefined)

>  <Group>
true

$$$$
>  <Molecule>
CC(=O)[C@]1(N)Cc2c(O)c3c(c(O)c2[C@@H](O[C@H]2C[C@H](O)[C@H](O)CO2)C1)C(=O)c1ccccc1C3=O

>  <Group>
true

$$$$
>  <Molecule>
CN1CCN(C2CCN(C(=O)Nc3cc(Oc4ccc(NC(=O)C5(C(=O)Nc6ccc(F)cc6)CC5)c(F)c4)ccn3)CC2)CC1

>  <Group>
false

$$$$
>  <Molecule>
COc1cc(C(=O)O)ccc1NC(=O)[C@@H]1N[C@@H](CC(C)(C)C)[C@](C#N)(c2ccc(Cl)cc2F)[C@H]1c1cccc(Cl)c1F

>  <Group>
true

$$$$

# strict comparison: is reported AC50 cell viability < 7 µM? input = CNC(=O)c1ccccc1Sc1ccc2c(/C=C/c3ccccn3)n[nH]c2c1 false

Could you please tell me whether AC50 cell viability recorded for CC(C)n1nc(-c2ccc3oc(N)nc3c2)c2c(N)ncnc21 is less than 7 µM? true

Lab log: compare recorded AC50 cell viability with 7 µM; is it strictly lower for O=C(Nc1cccnn1)N1CCC(=Cc2cccc(Oc3ccc(C(F)(F)F)cn3)c2)CC1 ? false

Please indicate whether the reported AC50 cell viability of Cc1ccc(Nc2nnc(Cc3ccncc3)c3ccccc23)cc1Br is strictly below 7 µM. false

AC50 cell viability strictly < 7 µM for this molecule? COc1cc2nccc(Oc3ccc(NC(=O)C4(C(=O)Nc5ccc(F)cc5)CC4)cc3)c2cc1OC [Cabozantinib] false

Strictly below 7 µM in AC50 cell viability? C[S+](=O)([O-])c1cccc(CNc2nc(Nc3ccc4c(c3)CCC(=O)N4)ncc2C(F)(F)F)c1 true

Say whether its AC50 cell viability is strictly beneath 7 µM. Entry: CC(C)(c1ccc(OCC(O)CO)cc1)c1ccc(OCC(O)CCl)cc1 (stereo not drawn) [Ralaniten (EPI-001)] false

Threshold test, AC50 cell viability < 7 µM: COc1cc(C(N)=O)ccc1NC(=O)[C@@H]1N[C@@H](CC(C)(C)C)[C@@]2(C(=O)Nc3cc(Cl)ccc32)[C@H]1c1cccc(Cl)c1F true

Please indicate whether the reported AC50 cell viability of O=C(O)c1ccc2c(c1)nc(Nc1cccc(Cl)c1)c1ccncc12 is strictly below 7 µM. true

---

# Test system: HCT116;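 further: HCT116 colorectal carcinoma cells screened at five concentrations per compound, luminescent viability scaled between DMSO wells and empty wells on each plate, curves fitted per compound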
# Experimental details: AC50 cell viability (CellTiter-Glo); higher = less potent
# Condition summary: 48 h
Result type: log10(AC50 cell viability) (log10 of the value in µM)
Please keep in mind that the values are log10 of AC50 cell viability expressed in µM.

>  <Compound>
Fc1cc(-c2cccc3ncc(-c4cnn(C5CCNCC5)c4)nc23)cc(F)c1CN1CCOCC1 [NVP-BSK805]

>  <log10(AC50 cell viability)>
0.92

$$$$
>  <Compound>
CC[C@@H]1[C@H](F)C(=O)N[C@@H]1COc1nccc2cc(C(N)=O)c(OC)cc12

>  <log10(AC50 cell viability)>
1.12

$$$$
>  <Compound>
CCc1c(O)cc(O)c(C(=O)c2ccc(OCCN3CCOCC3)c(OC)c2)c1CC(=O)N(CCOC)CCOC [KW-2478]

>  <log10(AC50 cell viability)>
-0.08

$$$$
>  <Compound>
C=CC(=O)N1CC/C(=C\c2ccc(F)c([N+](=O)[O-])c2)C(=O)/C(=C/c2ccc(F)c([N+](=O)[O-])c2)C1 [VLX-1570]

>  <log10(AC50 cell viability)>
-0.53

$$$$

Would you mind giving log10(AC50 cell viability) for every compound in the list below?
1. CC(C)(O)C[S+](=O)([O-])Nc1ccc2c(c1)CCN(C(=O)COc1cccnc1)C2 [NAMPT-IN-1]
2. CN1CCC(CNc2ccc3ncc(-c4cccc(OC(F)(F)F)c4)n3n2)CC1 [SGI-1776]
3. CN(C)Cc1c(C(=O)NCCOc2ccc(C(=O)NO)cc2)oc2ccccc12 [Abexinostat]

1. -1.33
2. 0.82
3. -0.58

Recall the reported log10(AC50 cell viability) of Cc1cc(Nc2nc(N[C@@H](C)c3ncc(F)cn3)ncc2Cl)n[nH]1 [AZD-1480] when tested on HCT116. 0.72
